Ref: paper PMC12040169

- Test summary: in vitro
- Details: human, hela cells, % viability
Recorded endpoint: viability at 28.5 h, 10 µM (%)
Please respond with the number in % and leave the unit unwritten.

Input line: viability at 28.5 h, 10 µM for Nc1nc2c(nc(O)n2[C@@H]2O[C@H](CO)[C@H](O)C2O)c(=O)[nH]1 (stereo partly drawn) ?
Output line: 88.5

Input line: How about Cc1ccc(NC(=O)N(Cc2ccc(-c3ccccc3)cc2)CC(C)(C)CN)cc1[N+](=O)[O-] [CBK002439C] ?
Output line: 83.7

Input line: How about CC1CC1C(=O)N1CCCC(c2nn(C)c3ncccc23)C1 (stereo not drawn) ?
Output line: 85.7

Input line: How about Cn1nc2c(cc1=O)CN(C(=O)c1ccc3cc[nH]c3c1)CC2 ?
Output line: 93.8

Input line: How about O=C(COc1ccc(C(=O)c2ccc(F)cc2)cc1)c1ccc2c(c1)OCCO2 ?
Output line: 111

Input line: How about CCCc1ccc(S(=O)(=O)Nc2c(C(=O)N(CC)CC)[nH]c3ccccc23)cc1 ?
Output line: 87.1

* * *

Attribute: viability at 28.5 h, 10 µM
- Test summary: in vitro
- Details: human, hela cells, % viability
Please respond with the number in % and leave the unit unwritten.

CC(=O)N1CCC[C@H]2NC(=O)CNC(=O)C3(C/C=C/C[C@H]21)CCNCC3 [CBK292173] = 89.8
CCC1CCCCN1C(=O)c1ccc(NC2CC2)nc1 (stereo not drawn) [CBK304815] = 92.2

Input line: viability at 28.5 h, 10 µM for CNS(=O)(=O)c1cccc(C(C)NC(=O)N2CCC2)c1 (stereo not drawn) [CBK306257] ?
Output line: 87.1

* * *

- Test summary: in vitro
- Details: human, hela cells, % viability
Attribute: viability at 28.5 h, 10 µM
Please respond with the number in % and leave the unit unwritten.

O=C(NCc1ccc(Cl)c(Cl)c1)N1CCN(Cc2ccccc2)CC1 = 85.3

Input line: viability at 28.5 h, 10 µM for CCCc1nc(SC)ncc1C(=O)Nc1nnc(SCC)s1 ?
Output line: 108

Input line: How about CC(=O)NC(CC(=O)NCc1cccnc1-n1cncn1)c1ccc(Cl)cc1 (stereo not drawn) ?
Output line: 101

Input line: How about O=C(CCN1CCOCC1)Nc1cc(Cl)cc(Cl)c1 ?
Output line: 119

Input line: How about O=S(=O)(NC1CCCCC1)c1ccc(S(=O)(=O)N2CCOCC2)cc1 ?
Output line: 102

Input line: How about N=C1/C(=C/c2cn(Cc3ccccc3)c3ccccc23)C(=O)N=C2SC(COc3ccccc3)=NN12 ?
Output line: 114

* * *

- Test summary: in vitro
- Details: human, hela cells, % viability
Attribute: viability at 28.5 h, 10 µM

// worked examples, viability at 28.5 h, 10 µM included
CCCN(Cc1nccn1C)C(=O)Cn1nc(C)c2ccccc2c1=O = 95.4%
Cc1cc(C)c2nc(-c3ccccn3)cc(C(=O)Nc3ccc(S(=O)(=O)Nc4onc(C)c4C)cc3)c2c1 = 92.9%
Fc1ccc(CN2CC3CCCC(C2)C3N2CCOCC2)cc1F (centres unmarked) = 95.8%
O=C(c1cc(F)c(F)cc1F)N1CCC2(CCCN(C(=O)c3cccc4[nH]ccc34)C2)C1 (centres unmarked) = 97.3%
C=CCNCc1cc2c(C)nn(-c3ccc(F)cc3)c2[nH]c1=O = 111%
COCCNc1nc(-c2ccc3ccccc3c2)cn2ccnc12 = 103%
Cc1csc(NS(=O)(=O)CC(C)C)n1 = 89.1%
CCCC(=O)N1CCC(c2nnc(-c3ccsc3)o2)CC1 = 85.5%
Cc1nccn1CC(=O)N1CCCC(C)(C(=O)NC2CCCC2)C1 (centres unmarked) = 91.8%
Cc1cc2c(cc3c(=O)n(CC(=O)NC(C)(C)C)nc(C)n32)s1 = 84.1%

Input line: viability at 28.5 h, 10 µM for CCN(CC)C(=O)C1CCCN(C(=O)Nc2ccc3[nH]ccc3c2)C1 (centres unmarked) ?
Output line: 98%

Input line: How about O=S(=O)(c1ccc(-c2ccc(S(=O)(=O)N3CCCCC3)cc2)cc1)N1CCCCC1 ?
Output line: 92.2%

Input line: How about O=C(NCCn1nc2c(cc1=O)CCCCC2)c1cccs1 ?
Output line: 100%
